tested_target: soluble rhesus ILT2-ECD (rhesus macaque)
Sequence (chain, as listed by the source limits assumed, form in doubt): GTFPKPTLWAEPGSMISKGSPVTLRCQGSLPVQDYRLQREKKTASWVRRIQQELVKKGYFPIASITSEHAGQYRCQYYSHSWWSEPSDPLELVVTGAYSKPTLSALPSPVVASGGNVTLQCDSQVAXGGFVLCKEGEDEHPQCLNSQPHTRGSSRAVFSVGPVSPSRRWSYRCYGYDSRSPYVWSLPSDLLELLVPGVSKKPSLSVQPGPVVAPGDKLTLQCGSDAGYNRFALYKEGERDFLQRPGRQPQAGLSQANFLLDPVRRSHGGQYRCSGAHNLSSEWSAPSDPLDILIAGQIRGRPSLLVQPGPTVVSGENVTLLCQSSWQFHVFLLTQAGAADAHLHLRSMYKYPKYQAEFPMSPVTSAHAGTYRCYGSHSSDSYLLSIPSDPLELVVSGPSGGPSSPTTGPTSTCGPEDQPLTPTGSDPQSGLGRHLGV
run_description: SPR (Biacore), antibody captured on Protein A chip, soluble rhesus ILT2-ECD injected (1.6-200 nM), 25 C
// values below are reported kon
I only need the number, in M⁻¹ s⁻¹, no unit after it.

Here are 3 binders together with their reported answers.
binder	kon / M⁻¹ s⁻¹
anti-ILT4 antibody 48A5 (antibody, V domains shown) VH: QIQLVQSGPELKKPGETVKISCKASGYTFTNYGMNWVKQAPGKGLKWMGWINTYIGEPIYADDFKGRFAFSLETSASTAYLQINNLKNEDMATYFCARRSDYDGYAMDYWGQGTSVTVSS VL: DIVMSQSPSSLAVSVGERVTMSCKSSQSLLYSGNQKNYLAWYQQKPGQSPKLLIYWASTRESGVPDRFTGSGSGTDFTLTISSVKAEDLAVYYCQQHDSYPTFGGGSRLEIK	1.1e+06
anti-ILT2/ILT4 antibody 51A1 (antibody, V domains shown) VH: EVQLVESGGGLVQPKGSLKLSCAASGFTFNTYAMHWVRQAPGKGLEWVARIRSKSSNYATYYADSVKDRFTISRDDSQSMLYLQMNNLKTEDTAMYYCVRDGIYYYGTMYYYAMDYWGQGTSVTVSS VL: NIVLTQSPASLAVSLGQRATISCRASESVDYYGNSFMYWYQQKPGQPPKLLIYFASNLESGVPARFSGSGSRTDFTLTIDPVEAADAASYYCQQNNEDPWTFGGGTKLEIK	100000
anti-ILT2/ILT4 antibody 73D1 (antibody, V domains shown) VH: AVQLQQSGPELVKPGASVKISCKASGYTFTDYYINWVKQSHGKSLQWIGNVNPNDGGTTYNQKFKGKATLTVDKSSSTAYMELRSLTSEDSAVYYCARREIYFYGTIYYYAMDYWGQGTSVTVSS VL: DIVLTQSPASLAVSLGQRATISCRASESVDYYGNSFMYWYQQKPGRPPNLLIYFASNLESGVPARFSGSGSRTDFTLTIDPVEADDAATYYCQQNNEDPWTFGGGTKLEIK	50000

Turning to the following binder.
GET /value?item= anti-ILT4 antibody 47C8 (antibody, V domains shown) VH: EVQLQQSGPDLVKPGASVKISCKASGYSFTGYYMHWVKQSHGKSLEWIGRVYPNNGDTSYNQKFKVKAILTVDKSSSTAYMELRSLTSEDSAVYYCARGATVVESLFAYWGQGTLVTVSA VL: DIVLTQSPASLAVSLGQRATISCRASESVDNYGNNFLHWYQQKPGQPPKLLIYRTSNLESGIPARFSGSGSRTDFTLTINPVEADDVATYYCQQSNEDPYTFGGGTKLEIK &field=kon returns 590000
